Molecular target: RXRα (Homo sapiens)
Construct: The first plasmid contains a retinoid receptor cDNA and directs constitutive expression of the encoded receptor; expressed in transfected cells; host or cells: CV-1 (monkey kidney)
Sequence (P19793 whole entry): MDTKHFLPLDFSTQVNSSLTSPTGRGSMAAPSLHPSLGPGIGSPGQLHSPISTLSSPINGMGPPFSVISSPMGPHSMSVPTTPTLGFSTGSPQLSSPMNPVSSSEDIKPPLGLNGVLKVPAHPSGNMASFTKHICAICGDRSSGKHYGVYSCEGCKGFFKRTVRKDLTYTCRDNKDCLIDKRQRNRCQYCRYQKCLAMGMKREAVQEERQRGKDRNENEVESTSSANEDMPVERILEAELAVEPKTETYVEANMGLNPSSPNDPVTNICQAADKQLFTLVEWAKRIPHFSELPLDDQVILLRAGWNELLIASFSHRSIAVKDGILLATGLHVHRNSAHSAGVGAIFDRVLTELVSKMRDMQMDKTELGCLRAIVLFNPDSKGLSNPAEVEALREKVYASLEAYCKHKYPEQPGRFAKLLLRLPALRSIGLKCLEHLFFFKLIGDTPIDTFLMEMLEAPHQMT
Test: Co-transfection (cis-trans) assay in CV-1 cells, RXRα
Assay type: cell-based
assay-readout: pEC50
Give only the number. pEC50 is defined as minus log10 of concentration in molar units.

Exam item: Item C=C(c1ccc(C(=O)O)cc1)c1cc2c(cc1Br)C(C)(C)CCC2(C)C has what recorded pEC50?
Marked response: 7.19

====

Target: RARα (Homo sapiens, UniProt P10276)
Sequence (P10276 whole entry): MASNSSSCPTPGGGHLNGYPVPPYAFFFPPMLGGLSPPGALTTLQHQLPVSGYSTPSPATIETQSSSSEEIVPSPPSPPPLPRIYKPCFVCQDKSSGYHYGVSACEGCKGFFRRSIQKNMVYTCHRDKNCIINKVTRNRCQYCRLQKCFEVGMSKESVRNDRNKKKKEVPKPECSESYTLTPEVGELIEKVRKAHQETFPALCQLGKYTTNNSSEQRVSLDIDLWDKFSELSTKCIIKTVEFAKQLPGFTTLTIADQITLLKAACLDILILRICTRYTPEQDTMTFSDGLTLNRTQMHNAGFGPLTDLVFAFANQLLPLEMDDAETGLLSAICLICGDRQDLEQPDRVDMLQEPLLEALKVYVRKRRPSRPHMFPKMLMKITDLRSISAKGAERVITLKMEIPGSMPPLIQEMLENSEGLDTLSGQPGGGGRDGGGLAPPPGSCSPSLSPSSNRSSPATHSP
assay-readout: Kd (µM)
Just the number in µM, nothing appended.

Exam item: GET /values?readout=Kd&system=RARα (Homo sapiens, UniProt P10276)&item= C=C(c1ccc(C(=O)O)cn1)c1cc2c(cc1C)C(C)(C)CCC2(C)C [TPNEP (58)]
Marked response: 7.8

====

Target: RARβ (Homo sapiens, UniProt P10826)
Sequence (P10826 1-455): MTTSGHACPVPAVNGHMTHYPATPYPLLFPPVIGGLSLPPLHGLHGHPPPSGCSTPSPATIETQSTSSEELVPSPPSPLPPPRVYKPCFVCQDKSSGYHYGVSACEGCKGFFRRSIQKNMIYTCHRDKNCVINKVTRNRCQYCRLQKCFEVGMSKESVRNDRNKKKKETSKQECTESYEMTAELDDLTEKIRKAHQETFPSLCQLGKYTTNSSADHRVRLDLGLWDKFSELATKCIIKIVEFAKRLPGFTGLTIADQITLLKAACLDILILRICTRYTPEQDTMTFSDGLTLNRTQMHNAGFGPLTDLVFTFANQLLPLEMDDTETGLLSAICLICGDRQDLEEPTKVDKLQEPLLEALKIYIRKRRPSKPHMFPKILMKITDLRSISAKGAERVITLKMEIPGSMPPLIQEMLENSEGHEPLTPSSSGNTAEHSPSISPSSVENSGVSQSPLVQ
Assay: Co-transfection (cis-trans) assay in CV-1 cells, RARβ
Type: cell-based
Parameters: expressed in transfected cells; host or cells: CV-1 (monkey kidney)
Conditions: CV-1, maximal response relative to all-trans-retinoic acid at 10^−5 M, read-out: Efficacy
Returns Criterion met if the recorded Emax at 10 µM is greater than or equal to 40%, and Criterion not met otherwise.

INSERT INTO measurements (compound, label) VALUES
  ('CC(/C=C/C1(c2cc3c(cc2C)C(C)(C)CCC3(C)C)CC1)=C\C(=O)O', 'Criterion not met'),
  ('CC1=C(/C=C/C2(C/C=C/C(C)=C/C(=O)O)CC2)C(C)(C)CCC1', 'Criterion not met'),
  ('Cc1cc2c(cc1C(=O)c1ccc(C(=O)Nc3ccc(O)cc3)cc1)C(C)(C)CCC2(C)C', 'Criterion not met'),
  ('C=C(c1ccc(C(=O)O)cc1)c1cc2c(cc1Br)C(C)(C)CCC2(C)C', 'Criterion not met'),
  ('CC1=C(/C=C/C(=C\C=C\C(C)=C\C(=O)O)C(C)C)C(C)(C)CCC1', 'Criterion met'),
  ('CCCC(=C/C=C/C(C)=C/C(=O)O)/C=C/C1=C(C)CCCC1(C)C', 'Criterion met');

// next entry
Exam item: Decide: is the reported value of Emax at 10 µM for CC(/C=C/C=C(\c1ccc2c(c1)C(C)(C)CCC2(C)C)C(C)C)=C\C(=O)O equal to or greater than 40%?
Marked response: Criterion met
